molecular target: human opiate receptor δ (Homo sapiens); test: Radioligand binding assay, human opiate receptor δ; conditions: radioligand binding, human opiate receptor δ; read-out: δ (IC50)
Sequence (P41143 whole entry): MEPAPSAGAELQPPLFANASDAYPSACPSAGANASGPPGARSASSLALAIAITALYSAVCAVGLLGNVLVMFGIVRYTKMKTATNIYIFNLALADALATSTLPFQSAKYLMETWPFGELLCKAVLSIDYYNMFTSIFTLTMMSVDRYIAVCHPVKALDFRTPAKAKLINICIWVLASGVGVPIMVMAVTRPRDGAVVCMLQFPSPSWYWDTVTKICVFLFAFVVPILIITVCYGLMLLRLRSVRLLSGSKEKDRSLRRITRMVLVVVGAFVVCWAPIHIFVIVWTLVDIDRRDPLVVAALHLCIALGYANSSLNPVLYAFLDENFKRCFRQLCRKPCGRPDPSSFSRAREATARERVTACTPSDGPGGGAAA
The reader will find reported IC50 values listed item by item below.

- molecule: "CCC(=O)N(C[C@@]12CN(CCc3ccccc3)CCC1CN(CCc1ccccc1)C2)c1ccccc1 (single isomer, unassigned)"
  measured_parameter: "IC50"
  endpoint_result: "< 1000 nM"
- molecule: "CCC(=O)N(CC12CN(CCc3ccccc3)CCC1CN(Cc1ccccc1)C2)c1ccccc1 (stereo not drawn)"
  measured_parameter: "IC50"
  endpoint_result: "< 1000 nM"

Next molecule, IC50 to be filled in.
# IC50 (molecule: CCC(=O)N(C[C@]12CN(CCc3ccccc3)CCC1CN(CCc1ccccc1)C2)c1ccccc1 (single isomer, unassigned) ) is < 1000 nM

* * *

biological target: human opiate receptor κ (Homo sapiens, UniProt P41145); experiment: Radioligand binding assay, human opiate receptor κ; conditions: radioligand binding, human opiate receptor κ; read-out: κ (IC50)
Sequence (P41145 whole entry): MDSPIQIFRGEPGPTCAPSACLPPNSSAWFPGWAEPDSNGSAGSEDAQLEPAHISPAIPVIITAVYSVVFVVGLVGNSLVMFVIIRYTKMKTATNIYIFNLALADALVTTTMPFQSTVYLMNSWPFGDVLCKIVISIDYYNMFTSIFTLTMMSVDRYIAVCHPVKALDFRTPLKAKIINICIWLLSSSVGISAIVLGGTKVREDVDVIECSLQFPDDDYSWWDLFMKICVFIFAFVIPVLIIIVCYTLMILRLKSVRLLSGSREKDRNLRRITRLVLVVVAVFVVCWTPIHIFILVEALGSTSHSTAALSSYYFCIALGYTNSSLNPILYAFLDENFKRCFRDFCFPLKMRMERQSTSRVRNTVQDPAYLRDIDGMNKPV
pIC50: −log10 of the molar value.
measured_parameter: pIC50

// below: answered compounds
- compound: "O[C@H](c1ccccc1)C12CN(CCc3ccccc3)CCC1CN(Cc1ccccc1)C2 (stereo partly drawn)"
  pIC50: "> 5.30"
- compound: "CS(=O)(=O)N(CC12CN(CCc3ccccc3)CCC1CN(Cc1ccccc1)C2)c1ccccc1 (stereo not drawn)"
  pIC50: "> 5.00"
- compound: "O[C@@H](c1ccccc1)C12CN(CCc3ccccc3)CCC1CN(Cc1ccccc1)C2 (stereo partly drawn)"
  pIC50: "> 5.30"
- compound: "CCC(=O)N(CC12CN(CCc3ccccc3)CCC1CN(Cc1ccccc1)C2)c1ccccc1 (stereo not drawn)"
  pIC50: "> 5.30"
- compound: "CCC(=O)N(C[C@]12CN(CCc3ccccc3)CCC1CN(CCc1ccccc1)C2)c1ccccc1 (single isomer, unassigned)"
  pIC50: "> 5.30"

Next compound, pIC50 to be filled in.
# pIC50 (compound: CCC(=O)N(C[C@@]12CN(CCc3ccccc3)CCC1CN(CCc1ccccc1)C2)c1ccccc1 (single isomer, unassigned) ) is > 6.00

* * *

Biological target: human opiate receptor κ (Homo sapiens)
Test: Radioligand binding assay, human opiate receptor κ
Method: Radioligand Binding Assays (IC50, μM) The radiobinding assays for human opiate receptor μ, κ and δ are conducted according the procedures outlined by Maguire et al. (Eur. Pharmacol. 1992, 213, 219).
measured_parameter: IC50

# IC50 (compound: C[C@@H](N(C(=O)C1CCC1)c1ccccc1)C12CN(CCc3ccccc3)CCC1CN(Cc1ccccc1)C2 (stereo partly shown) ) is < 5 µM

# IC50 (compound: CCC(=O)N(CC12CN(CCc3ccccc3)CCC1CN(CCc1ccccc1)C2)c1ccccc1 (stereo not shown) ) is < 5 µM

# IC50 (compound: C[C@H](N(C(=O)C1CCC1)c1ccccc1)C12CN(CCc3ccccc3)CCC1CN(Cc1ccccc1)C2 (stereo partly shown) ) is < 5 µM

# IC50 (compound: CCC(=O)N(c1ccccc1)C(C)C12CN(CCc3ccccc3)CCC1CN(Cc1ccccc1)C2 (stereo not shown) ) is < 5 µM

* * *

target: human opiate receptor μ (Homo sapiens, UniProt P35372); test: Radioligand binding assay, human opiate receptor μ
Sequence (P35372 whole entry): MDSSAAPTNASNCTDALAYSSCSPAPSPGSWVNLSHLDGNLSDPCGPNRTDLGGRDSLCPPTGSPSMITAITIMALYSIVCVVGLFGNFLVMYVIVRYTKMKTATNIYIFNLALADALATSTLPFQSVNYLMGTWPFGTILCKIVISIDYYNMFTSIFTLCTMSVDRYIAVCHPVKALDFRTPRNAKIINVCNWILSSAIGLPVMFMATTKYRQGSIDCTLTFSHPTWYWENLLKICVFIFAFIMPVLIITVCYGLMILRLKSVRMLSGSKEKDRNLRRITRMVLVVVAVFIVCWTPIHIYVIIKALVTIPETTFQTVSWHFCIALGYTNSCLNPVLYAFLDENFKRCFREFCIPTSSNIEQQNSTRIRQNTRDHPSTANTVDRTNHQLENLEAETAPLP
pIC50: −log10 of the molar value.
measured_parameter: pIC50

// below: answered molecules
- molecule: "CCC(=O)N(CC12CN(CCc3ccccc3)CCC1CN(CCc1ccccc1)C2)c1ccccc1 (stereo not shown) [Compound 36]"
  test_system: "human opiate receptor μ (Homo sapiens, UniProt P35372)"
  endpoint_result: "> 8.00"
- molecule: "C[C@H](N(C(=O)C1CCC1)c1ccccc1)C12CN(CCc3ccccc3)CCC1CN(Cc1ccccc1)C2 (stereo partly shown) [Compound 32]"
  test_system: "human opiate receptor μ (Homo sapiens, UniProt P35372)"
  endpoint_result: "> 7.00"
- molecule: "C[C@@H](N(C(=O)C1CCC1)c1ccccc1)C12CN(CCc3ccccc3)CCC1CN(Cc1ccccc1)C2 (stereo partly shown) [Compound 33]"
  test_system: "human opiate receptor μ (Homo sapiens, UniProt P35372)"
  endpoint_result: "> 6.00"

Next molecule, pIC50 to be filled in.
# pIC50 (molecule: CCC(=O)N(c1ccccc1)C(C)C12CN(CCc3ccccc3)CCC1CN(Cc1ccccc1)C2 (stereo not shown) [Compound 31] ) is > 8.00

* * *

The reader will find reported pIC50 values listed item by item below.
molecular target: human opiate receptor μ (Homo sapiens, UniProt P35372); assay: Radioligand binding assay, human opiate receptor μ; details: radioligand binding, human opiate receptor μ; read-out: μ (IC50)
pIC50: −log10 of the molar value.

- compound: "CCC(=O)N(CC12CN(CCc3ccccc3)CCC1CN(C(C)=O)C2)c1ccccc1 (stereo not shown)"
  pIC50: "> 6.00"

# pIC50 (compound: CCC(=O)N(C[C@@]12CN(CCc3ccccc3)CCC1CN(CCc1ccccc1)C2)c1ccccc1 (single isomer, unassigned) ) is > 8.00

# pIC50 (compound: CCC(=O)N(CC12CN(CCc3ccccc3)CCC1CN(S(C)(=O)=O)C2)c1ccccc1 (stereo not shown) ) is > 6.00

# pIC50 (compound: O[C@H](c1ccccc1)C12CN(CCc3ccccc3)CCC1CN(Cc1ccccc1)C2 (stereo partly shown) ) is > 6.00

# pIC50 (compound: O[C@@H](c1ccccc1)C12CN(CCc3ccccc3)CCC1CN(Cc1ccccc1)C2 (stereo partly shown) ) is > 6.00

# pIC50 (compound: CCC(=O)N(C[C@]12CN(CCc3ccccc3)CCC1CN(CCc1ccccc1)C2)c1ccccc1 (single isomer, unassigned) ) is > 7.00

# pIC50 (compound: CS(=O)(=O)N(CC12CN(CCc3ccccc3)CCC1CN(Cc1ccccc1)C2)c1ccccc1 (stereo not shown) ) is > 6.00

* * *

The reader will find reported pIC50 values listed item by item below.
molecular target: UniProt P41143; test: Radioligand binding assay, human opiate receptor δ
pIC50: −log10 of the molar value.

- compound: "C[C@H](N(C(=O)C1CCC1)c1ccccc1)C12CN(CCc3ccccc3)CCC1CN(Cc1ccccc1)C2 (stereo partly shown)"
  pIC50: "> 6.00"
- compound: "CCC(=O)N(c1ccccc1)C(C)C12CN(CCc3ccccc3)CCC1CN(Cc1ccccc1)C2 (stereo not shown)"
  pIC50: "> 6.00"
- compound: "CCC(=O)N(CC12CN(CCc3ccccc3)CCC1CN(CCc1ccccc1)C2)c1ccccc1 (stereo not shown)"
  pIC50: "> 6.00"

Next compound, pIC50 to be filled in.
Tested on UniProt P41143: C[C@@H](N(C(=O)C1CCC1)c1ccccc1)C12CN(CCc3ccccc3)CCC1CN(Cc1ccccc1)C2 (stereo partly shown) . Observed pIC50: > 5.30

* * *

target: human opiate receptor μ (Homo sapiens); assay: Radioligand binding assay, human opiate receptor μ; conditions: radioligand binding, human opiate receptor μ; read-out: μ (IC50)
pIC50: −log10 of the molar value.
measured_parameter: pIC50

// below: answered compounds
- compound: "CCC(=O)N(CC12CN(C)CC1CCN(CCc1ccccc1)C2)c1ccccc1 (stereo not drawn)"
  pIC50: "> 6.00"
- compound: "COc1cccc(C(O)C23CN(CCc4ccccc4)CCC2CN(Cc2ccccc2)C3)c1 (stereo not drawn)"
  pIC50: "> 6.00"

Next compound, pIC50 to be filled in.
Tested on human opiate receptor μ (Homo sapiens): CCC(=O)N(CC12CN(CCc3ccccc3)CCC1CN(Cc1ccccc1)C2)c1ccccc1 (stereo not drawn) . Observed pIC50: > 7.00
